Molecular target: B-cell lymphoma 6 protein (Homo sapiens)
Experiment: Binding affinity to recombinant N-terminal GST-tagged/RED-NHS labelled wild-type BCL6 BTB domain (5 to 129 residues) (unknown origin) expressed in Escherichia coli Rosetta BL21 (DE3) incubated for 30 mins under dark condition by microscale thermophoresis method
Conditions: read-out: Kd(app)
RESULT_TYPE: Kd (µM)
The reply should contain only the number, in µM.

Q) What value of Kd has been reported for the following compound? `CC[C@@H](C)[C@@H]1NC(=O)[C@H](CS)NC(=O)[C@H](C(C)C)NC(=O)[C@H](CS)NC(=O)[C@H](Cc2ccc(O)cc2)NC(=O)[C@H](Cc2ccc(O)cc2)NC1=O`
A) 142
